Tested on: E. coli 780
Test Protocol: Antibacterial activity test (MIC, MBC, growth curve)
Format: cell-based, Escherichia coli
Measurement Setup: Escherichia coli; E. coli 780, mean ± SD of three independent experiments; read-out: MBC
Protocol: All bacteria strains were obtained from the Thailand Institute of Scientific and Technological Research (TISTR). The antibacterial activity of chalcones 3a–f was determined by the minimal inhibitory concentration (MIC) and the minimal bactericidal concentration (MBC) against the Gram-positive (S. aureus 1466, TISTR 1466) and Gram-negative (E.coli 780, TISTR 780) bacteria. […] The bacterial numbers were determined by measuring the optical density at 600 nm by a UV–Vis spectrometer. […]
Quick reference for MBC among some compounds
Quick note: unit goes after the number.

Examples with their reported MBC follow.
[[record]]
chemical_string = "COc1ccc(C(=O)/C=C/c2ccc(N(C)C)cc2)cc1"
endpoint_label = "MBC"
observed_measurement = "750 µM"

[[record]]
chemical_string = "CN(C)c1ccc(/C=C/C(=O)c2ccc(N(C)C)cc2)cc1"
endpoint_label = "MBC"
observed_measurement = "375 µM"

[[record]]
chemical_string = "Cc1ccc(C(=O)/C=C/c2ccc(N(C)C)cc2)cc1"
endpoint_label = "MBC"
observed_measurement = "1000 µM"

[[record]]
chemical_string = "CN(C)c1ccc(/C=C/C(=O)c2ccc(N)cc2)cc1"
endpoint_label = "MBC"
observed_measurement = "750 µM"


Kindly review the next compound as well.
Data request: # lookup: MBC of `CN(C)c1ccc(/C=C/C(=O)c2cccs2)cc1`
Data returned: 750 µM

---

Test Protocol: Photophysical properties (UV–Vis absorption and fluorescence spectra)
Type: physicochemical
Measurement Setup: DMSO, 2 µM, n = 3, relative to fluorescein in 0.1 M NaOH
Lab note: compare Φf fluorescence quantum yields against 0.5. Equal or greater, write 1. Smaller, write -1.

Answered examples (3):
[[record]]
chemical_string = "CN(C)c1ccc(/C=C/C(=O)c2cccs2)cc1"
group = -1

[[record]]
chemical_string = "CN(C)c1ccc(/C=C/C(=O)c2ccc(N(C)C)cc2)cc1"
group = -1

[[record]]
chemical_string = "CN(C)c1ccc(/C=C/C(=O)c2ccc(O)cc2)cc1"
group = 1


Data request: Entry `COc1ccc(C(=O)/C=C/c2ccc(N(C)C)cc2)cc1` : is its Φf fluorescence quantum yields no less than 0.5?
Data returned: 1

Data request: Form field: Φf fluorescence quantum yields at least 0.5? Entry: `CN(C)c1ccc(/C=C/C(=O)c2ccc(N)cc2)cc1`
Data returned: -1

---

Test Protocol: Photophysical properties (UV–Vis absorption and fluorescence spectra)
Assay type: physicochemical
Measurement Setup: PBS (3%w/w tween 80), 2 µM
Procedure: All UV–Vis absorption and fluorescence spectra were recorded on a UV–Vis Spectrophotometer (Agilent Technologies Cary 300, Santa Clara, CA, USA) and a Spectrofluorometer (PerkinElmer LS55, Waltham, MA, USA), respectively. […] For fluorescence experiments, the emission spectra were recorded at the maximum absorbance wavelength of each compound. The fluorescent quantum yields (Φf) were calculated relative to fluorescein in 0.1 M NaOH as a standard (Φf = 0.95).
Endpoint Label: ∆λ stokes shifts (λem − λabs) (nm)
Write the answer as a number in nm, unit excluded.

[[record]]
chemical_string = "COc1ccc(C(=O)/C=C/c2ccc(N(C)C)cc2)cc1"
observed_measurement = 113

[[record]]
chemical_string = "CN(C)c1ccc(/C=C/C(=O)c2ccc(N)cc2)cc1"
observed_measurement = 112

[[record]]
chemical_string = "CN(C)c1ccc(/C=C/C(=O)c2ccc(O)cc2)cc1"
observed_measurement = 115


Data request: ∆λ stokes shifts (λem − λabs) lookup needed for `Cc1ccc(C(=O)/C=C/c2ccc(N(C)C)cc2)cc1` , thanks.
Data returned: 101

Data request: Field request: ∆λ stokes shifts (λem − λabs) | item: `CN(C)c1ccc(/C=C/C(=O)c2ccc(N(C)C)cc2)cc1`
Data returned: 120

Data request: Look at this compound and give its reported ∆λ stokes shifts (λem − λabs). `CN(C)c1ccc(/C=C/C(=O)c2cccs2)cc1`
Data returned: 93
